Target: EEF2K (human) (UniProt O00418)
Sequence (O00418 whole entry, looked up): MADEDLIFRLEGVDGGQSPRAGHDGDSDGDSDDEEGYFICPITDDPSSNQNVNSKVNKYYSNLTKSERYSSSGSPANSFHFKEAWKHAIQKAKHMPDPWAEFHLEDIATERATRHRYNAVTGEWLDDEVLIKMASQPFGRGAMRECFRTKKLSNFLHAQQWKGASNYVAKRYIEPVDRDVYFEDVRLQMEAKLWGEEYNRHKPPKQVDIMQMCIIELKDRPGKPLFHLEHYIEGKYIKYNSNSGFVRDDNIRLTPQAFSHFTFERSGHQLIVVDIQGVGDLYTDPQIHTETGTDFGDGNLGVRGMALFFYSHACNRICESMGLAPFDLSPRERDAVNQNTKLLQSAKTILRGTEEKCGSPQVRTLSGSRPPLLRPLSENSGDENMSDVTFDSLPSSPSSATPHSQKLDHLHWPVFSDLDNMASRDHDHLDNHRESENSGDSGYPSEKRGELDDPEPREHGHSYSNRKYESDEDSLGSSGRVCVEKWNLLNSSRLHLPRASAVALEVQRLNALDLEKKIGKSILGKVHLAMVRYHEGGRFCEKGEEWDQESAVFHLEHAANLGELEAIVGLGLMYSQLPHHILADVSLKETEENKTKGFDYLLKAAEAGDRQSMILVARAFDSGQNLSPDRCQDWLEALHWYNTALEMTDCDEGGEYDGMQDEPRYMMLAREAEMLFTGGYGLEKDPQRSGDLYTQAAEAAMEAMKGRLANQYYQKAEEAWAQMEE
Experiment: radiometric filter-binding kinase assay
Conditions: compound 100.0 µM; ATP 5 µM
PROPERTY_MEASURED: inhibition (%)

CC(=O)Nc1nc2cnc(-c3ccccc3)cn2n1; 13

I: COc1ccc(-c2cc3c(=O)[nH]cnc3s2)cc1OC
II: Nc1cnc2c(-c3c(F)cccc3F)cccn2c1=O
In: Just tell me: smaller inhibition value, I or II ? // respond with label for picked entry
Out: I
(I: 2%, II: 16%)

* * *

Test system: PAK2 (human), Q13177 [T402E]
Sequence (Q13177 whole entry T402E, looked up): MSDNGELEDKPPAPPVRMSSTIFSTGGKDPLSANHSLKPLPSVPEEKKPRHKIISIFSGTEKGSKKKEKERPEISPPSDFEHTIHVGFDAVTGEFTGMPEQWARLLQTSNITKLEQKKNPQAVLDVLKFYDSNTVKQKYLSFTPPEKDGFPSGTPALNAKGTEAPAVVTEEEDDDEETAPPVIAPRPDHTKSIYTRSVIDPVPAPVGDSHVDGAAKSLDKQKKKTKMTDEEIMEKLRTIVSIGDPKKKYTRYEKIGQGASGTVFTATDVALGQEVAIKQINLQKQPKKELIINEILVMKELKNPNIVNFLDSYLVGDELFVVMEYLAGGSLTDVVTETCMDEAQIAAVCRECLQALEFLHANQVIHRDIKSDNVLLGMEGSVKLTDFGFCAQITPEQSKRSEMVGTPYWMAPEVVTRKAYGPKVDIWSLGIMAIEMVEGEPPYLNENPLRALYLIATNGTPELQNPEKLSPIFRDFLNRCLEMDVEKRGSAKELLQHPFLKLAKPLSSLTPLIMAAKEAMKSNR
Test: radiometric filter-binding kinase assay
Conditions: compound 100.0 µM; ATP 20 µM
PROPERTY_MEASURED: inhibition (%)

// known answers, use as guide
CC(C)(C)Nc1c(C2CC2)nc2[nH]cnn12; 10
Cc1cccc(C)c1-c1cn2nc(N)nc2cn1; 56
Nc1nc2cnc(-c3ccccc3)cn2n1; 31
CC1CN(c2nc3ccccn3c(=O)c2N)CC(C)O1 (stereo not given); 3
CC(C)(C)Nc1c(COCc2ccccc2)nc2[nH]cnn12; 14

P: O=C(Nc1cnc2[nH]ccn2c1=O)c1ccccc1
Q: Nc1cnc2c(-c3c(F)cccc3F)cccn2c1=O
R: O=c1cc(-c2ccccc2F)nc2[nH]ccn12
S: O=c1c(NC(=S)NCc2ccccc2)cnc2[nH]ccn12
In: Rank by inhibition (largest to smallest). Rank them, then answer with their labels in that order.
Out: Q, P, S, R
(Q: 41%, P: 12%, S: 5%, R: 0%)

P: COc1ccc(-c2cc3c(=O)[nH]cnc3s2)cc1OC
Q: COc1ccc(NC(=S)Nc2cnc3[nH]cnn3c2=O)cn1
In: Rank P against Q by their inhibition values and give the higher one. // respond with label for picked entry
Out: Q
(Q: 17%, P: 0%)

All values here come from the kinase profiling compilation of Christmann-Franck et al. (2016).
